src = patent US20240200147A1

This listing pairs molecules with measured pIC50.
Tested on: CCLE NSCLC cell lines
Assay: Average IC50 and EC50 of selected compounds in PRISM drug screening data
Type: cell-based, human
Conditions: PRISM dataset; NSCLC cell lines; outliers (drug concentration value > 10) removed
Recall that pIC50 is obtained by taking minus log10 of the concentration measured in molar.

Observe how each entry below is paired with its result.
O=C(NOCC1CC1)c1ccc(F)c(F)c1Nc1ccc(I)cc1Cl | 5.40
Cc1ccc(-c2nn(C(C)(C)C)c3ncnc(N)c23)cc1 | 5.47
O=C(NOC[C@H](O)CO)c1ccc(F)c(F)c1Nc1ccc(I)cc1F | 6.13
N#CC(=C(N)Sc1ccc(N)cc1)c1ccccc1C(F)(F)F | 5.38
CC(C)(C)n1nc(-c2ccc(Cl)cc2)c2c(N)ncnc21 | 5.50

--- query ---
Query: I would be grateful if you could share the reported pIC50 for "COc1cccc(-c2cc(=O)c3ccccc3o2)c1N" .
Reply: 5.30
